experiment: physchem; details: pH 7.4
Parameter: solubility thermodynamic at 24 h (µM)
Give bare numbers, in µM.

Ask: Returns the measured solubility thermodynamic at 24 h for the input compound. Input: `Cc1[nH]c(C(=O)Nc2nc3c(N4CCOCC4)cc(C(=O)O)cc3s2)c(Cl)c1Cl`
Result: 168

###

Target: topo IV from E. coli (Escherichia coli)
Construct: purchased Inspiralis
Sequence (P0AFI2 whole entry): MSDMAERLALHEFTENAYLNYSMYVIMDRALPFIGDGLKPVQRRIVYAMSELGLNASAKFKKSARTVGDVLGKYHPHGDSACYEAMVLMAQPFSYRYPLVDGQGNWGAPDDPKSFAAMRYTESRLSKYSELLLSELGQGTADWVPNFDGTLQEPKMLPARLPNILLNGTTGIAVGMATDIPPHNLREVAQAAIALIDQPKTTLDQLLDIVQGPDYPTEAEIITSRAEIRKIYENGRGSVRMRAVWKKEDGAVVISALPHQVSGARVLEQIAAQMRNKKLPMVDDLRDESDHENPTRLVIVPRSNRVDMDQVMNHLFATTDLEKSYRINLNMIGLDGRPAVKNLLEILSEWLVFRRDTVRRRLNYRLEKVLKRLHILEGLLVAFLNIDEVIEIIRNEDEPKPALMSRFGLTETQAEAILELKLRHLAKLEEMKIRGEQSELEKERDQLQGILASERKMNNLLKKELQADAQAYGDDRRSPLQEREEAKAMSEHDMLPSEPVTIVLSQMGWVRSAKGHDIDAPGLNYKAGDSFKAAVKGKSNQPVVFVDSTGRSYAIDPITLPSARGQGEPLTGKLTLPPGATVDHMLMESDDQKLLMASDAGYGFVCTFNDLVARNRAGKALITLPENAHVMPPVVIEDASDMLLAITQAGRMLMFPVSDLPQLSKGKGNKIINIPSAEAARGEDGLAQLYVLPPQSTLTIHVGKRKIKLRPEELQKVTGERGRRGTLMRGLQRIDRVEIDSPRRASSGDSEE
Sequence (P20083 whole entry): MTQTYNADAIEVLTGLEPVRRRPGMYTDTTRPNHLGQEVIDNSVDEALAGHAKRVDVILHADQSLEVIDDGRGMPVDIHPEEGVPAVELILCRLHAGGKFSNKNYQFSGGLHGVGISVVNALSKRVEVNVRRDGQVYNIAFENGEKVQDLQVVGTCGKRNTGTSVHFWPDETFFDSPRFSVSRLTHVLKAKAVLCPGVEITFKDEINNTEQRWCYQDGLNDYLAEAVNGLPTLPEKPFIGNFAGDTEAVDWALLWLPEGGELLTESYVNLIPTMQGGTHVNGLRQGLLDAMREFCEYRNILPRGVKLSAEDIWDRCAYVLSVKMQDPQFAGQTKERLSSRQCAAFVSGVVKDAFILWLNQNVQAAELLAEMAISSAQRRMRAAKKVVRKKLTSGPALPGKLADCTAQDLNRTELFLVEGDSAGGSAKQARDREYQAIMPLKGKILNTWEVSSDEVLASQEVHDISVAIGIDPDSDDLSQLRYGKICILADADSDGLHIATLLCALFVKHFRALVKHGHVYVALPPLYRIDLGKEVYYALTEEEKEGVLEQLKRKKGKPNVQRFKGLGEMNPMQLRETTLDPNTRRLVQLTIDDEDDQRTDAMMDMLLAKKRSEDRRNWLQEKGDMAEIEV
Assay: relaxation HTS plate assay
Type: biochemical
Settings: read-out: IC50
Experimental: All compounds were tested for their inhibitory activities against DNA gyrase and topo IV from E. coli in supercoiling and relaxation high-throughput plate assays, respectively. Our new series of inhibitors were then tested against a panel of Gram-positive and Gram-negative bacteria. Seven concentrations of the inhibitors were used to determine IC50 values which were then calculated with GraphPad Prism 6.0 software. […]
Parameter: IC50 (nM)
One number for each entry, in nM.

Example cases with answers are listed next.
COCC1CCCN1c1cc(C(=O)O)cc2sc(NC(=O)c3[nH]c(C)c(Cl)c3Cl)nc12 (centres unmarked) : 210
COC[C@@H]1CCCN1c1cc(C(=O)O)cc2sc(NC(=O)c3[nH]c(C)c(Cl)c3Cl)nc12 : 280
Cc1[nH]c(C(=O)Nc2nc3c(N4C[C@H]5CC[C@@H](C4)O5)cc(C(=O)O)cc3s2)c(Cl)c1Cl : 16
Cc1[nH]c(C(=O)Nc2nc3c(N4CCOC[C@@H]4C)cc(C(=O)O)cc3s2)c(Cl)c1Cl : 95
Cc1[nH]c(C(=O)Nc2nc3c(N4CCC(O)CC4)cc(C(=O)O)cc3s2)c(Cl)c1Cl : 140
Cc1[nH]c(C(=O)Nc2nc3c(N4CCOCC4)cc(C(=O)O)cc3s2)cc1F [16b] : 120

Ask: Can you share its IC50? I mean this molecule: Cc1[nH]c(C(=O)Nc2nc3c(N4CCOCC4)cc(C(=O)O)cc3s2)cc1C#N [16c]
Result: 440

###

system: 100 A. baumannii strains (50 MDR, 50 non-MDR); assay: MIC broth microdilution at IHMA Europe, panel of 100 strains; type: cell-based; details: Acinetobacter baumannii, A. baumannii IHMA 1829500, Georgia 2018, Non-MDR; read-out: MIC
Exercise: state measured MIC for each of the compounds provided.
The number alone won't do; follow it with the unit.

C[C@@H](O)[C@H]1C(=O)N2C(C(=O)O)=C(S[C@@H]3CN[C@H](C(=O)N(C)C)C3)[C@H](C)[C@H]12 : 0.12 µg/mL
Cc1[nH]c(C(=O)Nc2nc3c(N4[C@@H]5CC[C@H]4COC5)cc(C(=O)O)cc3s2)c(Cl)c1Cl : 2 µg/mL

Now for another entry.
Ask: What measured MIC goes with CO/N=C(\C(=O)N[C@@H]1C(=O)N2C(C(=O)[O-])=C(C[N+]3(C)CCCC3)CS[C@H]12)c1csc(N)n1 [Cefepime, cefepime] ?
Result: 1 µg/mL

###

experiment: physchem; assay type: physicochemical; conditions: phosphate-buffered saline (PBS), pH 7.4, thermodynamic solubility (pH = 7.4), PBS, 37 °C, 24 h, mean of two
I'd appreciate it if you could supply log10 of solubility thermodynamic at 48 h values for the items below.
The common logarithm of solubility thermodynamic at 48 h in µM is what is listed.

Solved entries (count: 4):
Cc1[nH]c(C(=O)Nc2nc3c(N4CCOCC4)cc(C(=O)O)cc3s2)cc1Cl [16a] : 2.14
Cc1[nH]c(C(=O)Nc2nc3c(N4CCOCC4C)cc(C(=O)O)cc3s2)c(Cl)c1Cl (centres unmarked) : 1.83
Cc1[nH]c(C(=O)Nc2nc3c(N4CCOC(C(F)(F)F)C4)cc(C(=O)O)cc3s2)c(Cl)c1Cl (centres unmarked) : 1.04
Cc1[nH]c(C(=O)Nc2nc3c(N4CCOC(C)C4)cc(C(=O)O)cc3s2)c(Cl)c1Cl (centres unmarked) : 1.90

Next:
Ask: log10 of solubility thermodynamic at 48 h for `Cc1[nH]c(C(=O)Nc2nc3c(N4C[C@H]5CC[C@@H](C4)O5)cc(C(=O)O)cc3s2)c(Cl)c1Cl` ?
Result: -0.59

###

experiment: mitochondrial toxicity glu/gal assay; type: cell-based; conditions: human, glucose, 10 µM; read-out: cell viability (ATP), % of control
Parameter: viability at 10 µM (%)
Numbers only, in %.

Ask: Please give the measured viability at 10 µM for this compound: `Cc1[nH]c(C(=O)Nc2nc3c(N4CCOCC4)cc(C(=O)O)cc3s2)c(Cl)c1Cl`
Result: 109

###

For each record, write down the corresponding MIC.
tested on: S. aureus (VISA) ATCC 700699; assay: MIC broth microdilution (CLSI); assay type: cell-based; settings: Staphylococcus aureus; read-out: MIC

Cc1[nH]c(C(=O)Nc2nc3c(N4CCOC[C@H]4C)cc(C(=O)O)cc3s2)c(Cl)c1Cl [7c] : 0.0625 µg/mL

Each compound below has a recorded value; state its MIC.
1. Cc1[nH]c(C(=O)Nc2nc3c(N4CCCC4)cc(C(=O)O)cc3s2)c(Cl)c1Cl [7j]
2. Cc1[nH]c(C(=O)Nc2nc3c(N4CCOC4=O)cc(C(=O)O)cc3s2)c(Cl)c1Cl [7m]
3. Cc1[nH]c(C(=O)Nc2nc3c(N4CCOC(C)C4)cc(C(=O)O)cc3s2)c(Cl)c1Cl (stereo not shown) [7e]

Result:
["0.0625 µg/mL", "8 µg/mL", "< 0.0312 µg/mL"]

###

Would you mind telling me the reported solubility thermodynamic at 24 h of each entry?
test: physchem; type: physicochemical; conditions: phosphate-buffered saline (PBS), pH 7.4, thermodynamic solubility (pH = 7.4), PBS, 37 °C, 24 h, mean of two
Please state the number and follow it with the unit.

Some compounds with known solubility thermodynamic at 24 h results, for comparison:
Cc1[nH]c(C(=O)Nc2nc3c(N4CCOCC4)cc(C(=O)O)cc3s2)cc1Cl [16a] : 138 µM
Cc1[nH]c(C(=O)Nc2nc3c(N4CC(C)OC(C)C4)cc(C(=O)O)cc3s2)c(Cl)c1Cl (centres unmarked) : 0.92 µM

Dear colleague, could you send me solubility thermodynamic at 24 h for each of the items below? Thanks.
1. COC[C@@H]1CCCN1c1cc(C(=O)O)cc2sc(NC(=O)c3[nH]c(C)c(Cl)c3Cl)nc12
2. Cc1[nH]c(C(=O)Nc2nc3c(N4CCOCC4)cc(C(=O)O)cc3s2)cc1F [16b]

Result:
["11 µM", "131 µM"]

###

experiment: mitochondrial toxicity glu/gal assay; assay type: cell-based; details: human, galactose, 600 µM; read-out: cell viability (ATP), % of control
Parameter: viability at 600 µM
Remember to put the unit after the number in your answer.

Ask: Fill in: viability at 600 µM of `Cc1[nH]c(C(=O)Nc2nc3c(N4CCOCC4)cc(C(=O)O)cc3s2)c(Cl)c1Cl` is ___
Result: 94%

###

assay: in vitro; type: in vitro ADME, mouse; conditions: male, CD-1, mouse, plasma (pooled), mouse plasma, 5 µM, 4 h; read-out: fu, fraction unbound
I'd appreciate it if you could supply fraction unbound at 4 h, 5 μM values for the items below.
One number for each entry.

See these solved cases before continuing.
Cc1[nH]c(C(=O)Nc2nc3c(N4CCOC[C@H]4C)cc(C(=O)O)cc3s2)c(Cl)c1Cl : 0.016
Cc1[nH]c(C(=O)Nc2nc3c(N4CCOC[C@@H]4C)cc(C(=O)O)cc3s2)c(Cl)c1Cl : 0.011
Cc1[nH]c(C(=O)Nc2nc3c(N4CCOCC4C)cc(C(=O)O)cc3s2)c(Cl)c1Cl (stereo not drawn) : 0.013

Turning now to a further record.
Ask: Quick one: fraction unbound at 4 h, 5 μM for `Cc1[nH]c(C(=O)Nc2nc3c(N4C[C@H]5CC[C@@H](C4)O5)cc(C(=O)O)cc3s2)c(Cl)c1Cl` ?
Result: 0.004

###

System: E. coli ATCC 25922
Test: MIC broth microdilution (CLSI)
Format: cell-based
Details: Escherichia coli, ATCC25922; read-out: MIC
Procedure: MICs (Tables 1 and S1–S3) were determined with a standard serial broth microdilution technique according to Clinical and Laboratory Standards Institute (CLSI) guidelines.[45] […] Bacterial strains were inoculated onto MHBII agar plates and grown overnight at 37 °C. […] After incubation, the OD600 of each well was measured using a microplate reader (Synergy 2; Biotek). […]
Parameter: MIC (µg/mL)
One number for each entry, in µg/mL.

Record excerpt, results attached:
COC[C@@H]1CCCN1c1cc(C(=O)O)cc2sc(NC(=O)c3[nH]c(C)c(Cl)c3Cl)nc12 : 16
Cc1[nH]c(C(=O)Nc2nc3c(N4CCCC4)cc(C(=O)O)cc3s2)c(Cl)c1Cl : 16
Cc1[nH]c(C(=O)Nc2nc3c(N4CC(C)OC(C)C4)cc(C(=O)O)cc3s2)c(Cl)c1Cl (stereo not drawn) : 8

We now examine a further compound.
Ask: For the compound shown here, `Cc1[nH]c(C(=O)Nc2nc3c(N4CCC5(CC4)OCCO5)cc(C(=O)O)cc3s2)c(Cl)c1Cl` , give the reported MIC.
Result: 4
